test: pKa measurement of unformulated amine lipid (fluorescence, method of Jayaraman et al.); format: physicochemical; details: 100 μM in 0.1 M phosphate buffer, pH 2.0-12.0
property: pKa

[[record]]
compound = "CCCCCC/C=C\\COC(=O)CCCCCCCCCCCC(=O)OCC(COC(=O)CCC(OCCCCCCCC)OCCCCCCCC)COC(=O)OCCCN(CC)CC (stereo not shown) [Compound 70]"
property = "pKa"
result = 6.02

[[record]]
compound = "CCCCC/C=C\\C/C=C\\CCCCCCCC(=O)OCC(COC(=O)CCC(OCCCCCCCC)OCCCCCCCC)COC(=O)N1CCN(C)CC1 (stereo not shown) [Compound 47]"
property = "pKa"
result = 5.9

[[record]]
compound = "CCCCCCCCOC(CCC(=O)OCC(COC(=O)CCCCCCCC(=O)OCCCCCC)COC(=O)OCCCN(CC)CC)OCCCCCCCC (stereo not shown) [Compound 57]"
property = "pKa"
result = 6.59

[[record]]
compound = "CCCCCCCCCCOC(=O)CCCCCCCC(=O)OCC(COC(=O)CCCCCC(=O)OC(CCCCCCCC)CCCCCCCC)COC(=O)OCCC1CCCN1C (stereo not shown) [Compound 80]"
property = "pKa"
result = 6.21

[[record]]
compound = "CCCCCC/C=C\\COC(=O)CCCCCCCCCC(=O)OCC(COC(=O)CCC(OCCCCCCCC)OCCCCCCCC)COC(=O)OCCCN(CC)CC (stereo not shown) [Compound 69]"
property = "pKa"
result = 6.18


Each of the following entries comes with a recorded value; kindly state pKa for each.
1. CCCCC/C=C\C/C=C\CCCCCCCC(=O)OCC(COC(=O)CCC(OCCCCCCCC)OCCCCCCCC)COC(=O)N1CCN(CC)CC1 (stereo not shown) [Compound 48]
2. CC/C=C\C/C=C\C/C=C\CCCCCCCC(=O)OCC(COC(=O)CCC(OCCCCCCCC)OCCCCCCCC)COC(=O)OCCCN(CC)CC (stereo not shown) [Compound 116]
3. CCCCC/C=C\C/C=C\CCCCCCCC(=O)OCC(COC(=O)CCC(OCCCCCCCC)OCCCCCCCC)COC(=O)NCCCN1CCC(O)CC1 (stereo not shown) [Compound 46]
4. CCCCC/C=C\C/C=C\CCCCCCCC(=O)OCC(COC(=O)CCCC(=O)OC(CCCCCCCC)CCCCCCCC)COC(=O)OCCCN(CC)CC (stereo not shown) [Compound 63]
5. CCCCC/C=C\C/C=C\CCCCCCCC(=O)OCC(COC(=O)CCCCCC(=O)OC(CCCCCCCC)CCCCCCCC)COC(=O)OCCCN(CC)CC (stereo not shown) [Compound 64]
6. CCCCCC/C=C\COC(=O)CCCCCCCC(=O)OCC(COC(=O)CCC(OCCCCCCCC)OCCCCCCCC)COC(=O)OCCCN(CC)CC (stereo not shown) [Compound 54]
7. CCCCCCCCCCOC(=O)CCCCCCCCCCCC(=O)OCC(COC(=O)CCC(OCCCCCCCC)OCCCCCCCC)COC(=O)OCCCN(CC)CC (stereo not shown) [Compound 91]

Output:
1. 5.3
2. 6.04
3. 8.9
4. 6.09
5. 6.08
6. 6.4
7. 6.08

Task: // query pKa value for entry CCCCC/C=C\C/C=C\CCCCCCCC(=O)OCC(COC(=O)CCC(OCCCCCCCC)OCCCCCCCC)COC(=O)OCC1(C)CCCN(CC)C1 (stereo not shown) [Compound 52]
Output: 7.8
